# SYSTEM UNDER TEST: human sodium ion channel 1.7 (hNav1.7) (Homo sapiens, UniProt Q15858)
# Sequence (Q15858 whole entry): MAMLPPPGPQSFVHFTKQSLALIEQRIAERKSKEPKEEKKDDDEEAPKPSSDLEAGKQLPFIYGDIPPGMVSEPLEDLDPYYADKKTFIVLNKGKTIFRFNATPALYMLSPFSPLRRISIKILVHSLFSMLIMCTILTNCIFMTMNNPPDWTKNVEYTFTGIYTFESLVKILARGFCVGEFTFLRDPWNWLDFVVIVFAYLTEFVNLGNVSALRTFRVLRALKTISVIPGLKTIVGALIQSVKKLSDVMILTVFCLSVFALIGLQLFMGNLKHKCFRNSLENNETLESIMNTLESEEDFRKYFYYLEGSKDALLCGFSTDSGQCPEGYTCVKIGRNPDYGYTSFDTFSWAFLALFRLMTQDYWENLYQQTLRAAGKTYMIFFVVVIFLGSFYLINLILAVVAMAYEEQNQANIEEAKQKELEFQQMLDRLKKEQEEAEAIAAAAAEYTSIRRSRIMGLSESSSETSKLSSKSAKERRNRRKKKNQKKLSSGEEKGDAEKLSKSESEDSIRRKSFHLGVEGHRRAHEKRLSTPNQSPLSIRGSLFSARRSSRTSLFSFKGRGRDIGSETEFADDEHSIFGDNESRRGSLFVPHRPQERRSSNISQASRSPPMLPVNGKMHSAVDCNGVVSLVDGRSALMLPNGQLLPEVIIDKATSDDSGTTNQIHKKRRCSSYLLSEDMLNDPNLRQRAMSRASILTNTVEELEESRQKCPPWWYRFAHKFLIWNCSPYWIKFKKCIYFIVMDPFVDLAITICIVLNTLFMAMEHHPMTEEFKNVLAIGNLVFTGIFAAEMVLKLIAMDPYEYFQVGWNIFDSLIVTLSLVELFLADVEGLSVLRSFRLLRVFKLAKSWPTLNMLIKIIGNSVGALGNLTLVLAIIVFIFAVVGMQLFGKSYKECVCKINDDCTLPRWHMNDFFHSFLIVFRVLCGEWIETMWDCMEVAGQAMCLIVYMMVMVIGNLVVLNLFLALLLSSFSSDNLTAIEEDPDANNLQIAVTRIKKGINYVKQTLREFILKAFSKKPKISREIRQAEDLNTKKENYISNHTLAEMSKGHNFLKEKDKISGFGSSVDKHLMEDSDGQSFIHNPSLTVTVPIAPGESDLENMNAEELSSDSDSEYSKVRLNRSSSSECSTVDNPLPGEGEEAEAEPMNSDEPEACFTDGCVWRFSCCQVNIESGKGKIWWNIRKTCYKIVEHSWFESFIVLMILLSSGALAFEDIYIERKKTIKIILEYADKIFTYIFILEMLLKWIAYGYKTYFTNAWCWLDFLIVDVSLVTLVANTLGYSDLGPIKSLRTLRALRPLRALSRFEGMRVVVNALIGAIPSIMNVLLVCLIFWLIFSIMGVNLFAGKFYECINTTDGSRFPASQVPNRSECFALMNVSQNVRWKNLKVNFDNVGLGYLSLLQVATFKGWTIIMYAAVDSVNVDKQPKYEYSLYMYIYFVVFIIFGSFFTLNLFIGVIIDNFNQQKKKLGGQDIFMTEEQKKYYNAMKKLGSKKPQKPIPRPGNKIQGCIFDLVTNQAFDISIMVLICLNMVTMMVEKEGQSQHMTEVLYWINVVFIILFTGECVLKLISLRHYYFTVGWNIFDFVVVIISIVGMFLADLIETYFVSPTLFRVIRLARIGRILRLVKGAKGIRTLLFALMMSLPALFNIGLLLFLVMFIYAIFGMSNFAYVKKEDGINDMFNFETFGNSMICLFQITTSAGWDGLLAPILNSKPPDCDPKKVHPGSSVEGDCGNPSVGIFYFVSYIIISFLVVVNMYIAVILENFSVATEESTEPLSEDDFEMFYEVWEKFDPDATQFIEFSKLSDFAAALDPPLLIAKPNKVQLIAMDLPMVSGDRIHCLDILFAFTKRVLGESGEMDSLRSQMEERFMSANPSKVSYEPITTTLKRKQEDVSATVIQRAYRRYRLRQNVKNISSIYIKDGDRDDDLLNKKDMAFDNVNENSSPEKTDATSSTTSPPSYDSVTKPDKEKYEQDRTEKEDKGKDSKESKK
# TEST METHOD NOTES: Blocking effect against sodium ion channel Nav1.7, IonFlux16 auto patch clamp in hNav1.7 HEK293 cells
# Assay type: cell-based
# APPLIED CONDITIONS: hNav1.7 HEK293 cells; inhibition of peak current after 50 seconds treatment; eight concentrations; read-out: IC50
REPORTED PROPERTY: pIC50
To interpret pIC50, take it as minus log10 of a concentration measured in moles per litre.

INSERT INTO assay_data (smiles_data, reported_value) VALUES
  ('CS(=O)(=O)NC(=O)c1ccc(-n2nc(-c3cccc(C#N)c3)c3cc(Cl)ccc32)c(F)c1', 5.75);

Which pIC50 value belongs to `CS(=O)(=O)NC(=O)c1cc(Cl)c(-n2nc(-c3cc(F)cc(Cl)c3)c3cc(Cl)ccc32)cc1F` ? 7.52

Reported pIC50, compound `CS(=O)(=O)NC(=O)c1ccc(-n2nc(-c3ccccc3C(F)(F)F)c3cc(Cl)ccc32)c(C#N)c1` : ____ 6.77

So what does the record say about pIC50 for `Cc1cc(Cl)ccc1-c1ccc2c(c1)c(Cl)nn2-c1cc(F)c(C(=O)NS(C)(=O)=O)cc1Cl` ? 6.32

Dear colleague, I am looking for the recorded pIC50 of the following compound: `COc1ccc(-c2cn(-c3cc(F)c(C(=O)NS(C)(=O)=O)cc3Cl)c3ncc(Cl)cc23)cc1` 6.89

# query: pIC50 of entry `Cn1nccc1-c1nn(-c2cc(F)c(S(=O)(=O)Nc3cscn3)cc2Cl)c2ccc(Cl)cc12` 5.78

---

# SYSTEM UNDER TEST: human sodium ion channel 1.7 (hNav1.7) (Homo sapiens, UniProt Q15858)
# TEST METHOD NOTES: Blocking effect against sodium ion channel Nav1.7, IonFlux16 auto patch clamp in hNav1.7 HEK293 cells
# Format: cell-based
# APPLIED CONDITIONS: hNav1.7 HEK293 cells; inhibition of peak current after 50 seconds treatment; eight concentrations; read-out: IC50
Readings of IC50 for the listed compounds
Give the value in nM but do not write nM after it.

Take a look at these entries with their results.
INSERT INTO assay_data (smiles_data, reported_value) VALUES
  ('Cc1nn(-c2cc(F)c(C(=O)NS(C)(=O)=O)cc2Cl)c2ccc(OCc3ccccc3)cc12', 247),
  ('CS(=O)(=O)NC(=O)c1cc(Cl)c(-n2nc(Cl)c3cc(-c4ccc(Cl)cc4F)ccc32)cc1F', 304),
  ('CS(=O)(=O)NC(=O)c1cc(Cl)c(-n2cc(-c3cccc(Cl)c3)c3cccnc32)cc1F', 970),
  ('CS(=O)(=O)NC(=O)c1cc(Cl)c(-n2cc(-c3ccc(Cl)c(F)c3)c3cccnc32)cc1F', 230);

As a next step, examine the compound that follows.
I'd like to know its IC50. The compound in question is `CS(=O)(=O)NC(=O)c1cc(Cl)c(-n2cc(-c3ccc(C(F)(F)F)cc3)c3cccnc32)cc1F` 290

---

# SYSTEM UNDER TEST: human sodium ion channel 1.7 (hNav1.7) (Homo sapiens)
# TEST METHOD NOTES: Blocking effect against sodium ion channel Nav1.7, IonFlux16 auto patch clamp in hNav1.7 HEK293 cells
# Format: cell-based
# APPLIED CONDITIONS: hNav1.7 HEK293 cells; inhibition of peak current after 50 seconds treatment; eight concentrations; read-out: IC50
Collected pIC50 values appear next to each entry.
Field pIC50 (float): negative decimal logarithm of the concentration in molar.

Item `CS(=O)(=O)NC(=O)c1cc(Cl)c(-n2nc(Cl)c3cc(-c4ccccc4C(F)(F)F)ccc32)cc1F` has what recorded pIC50? 7.17

Request the reported pIC50 associated with `CC(C)COc1ccc2c(cnn2-c2cc(F)c(C(=O)NS(C)(=O)=O)cc2Cl)c1` 5.20

Entry under review: `CS(=O)(=O)NC(=O)c1cc(Cl)c(-n2nc(-c3ccc(Cl)cc3)c3cc(F)ccc32)cc1F` . Reported pIC50? 7.22

Which pIC50 reading was recorded for the compound `CS(=O)(=O)NC(=O)c1cc(Cl)c(-n2cc(Cl)c3cc(-c4ccc(C(F)(F)F)cc4)cnc32)cc1F` ? 6.74

Recorded pIC50 for `CS(=O)(=O)NC(=O)c1ccc(-n2nc(-c3ccccc3F)c3cc(Cl)ccc32)c(F)c1` , please? 6.54

Name the recorded pIC50 for `NC(=O)NNC(=O)c1cc(Cl)c(-n2nc(-c3ccc(Cl)cc3F)c3cc(Cl)ccc32)cc1F` . 4.95

---

# key: entry, value: pIC50
# SYSTEM UNDER TEST: UniProtKB Q15858
# TEST METHOD NOTES: Blocking effect against sodium ion channel Nav1.7, IonFlux16 auto patch clamp in hNav1.7 HEK293 cells
# Assay type: cell-based
# APPLIED CONDITIONS: hNav1.7 HEK293 cells; inhibition of peak current after 50 seconds treatment; eight concentrations; read-out: IC50
Recall that pIC50 is obtained by taking minus log10 of the concentration measured in molar.

Known pIC50 results, listed for orientation:
INSERT INTO measurements (smiles_data, reported_value) VALUES
  ('CS(=O)(=O)NC(=O)c1cc(Cl)c(-n2cc(Cl)c3cc(-c4cccc(F)c4)cnc32)cc1F', 6.68),
  ('CS(=O)(=O)NC(=O)c1cc(Cl)c(-n2ncc3c(Cl)c(F)ccc32)cc1F', 5.51);

What does the data say about its pIC50? Entry: `O=S(=O)(Nc1cscn1)c1cc(Cl)c(-n2nc(Cl)c3cc(C(F)(F)F)ccc32)cc1F` 5.96

Give the measured pIC50 of `CC(C)Cc1ccc2c(c1)c(-c1ccccc1)nn2-c1cc(F)c(C(=O)NS(C)(=O)=O)cc1Cl` . 6.96

---

# SYSTEM UNDER TEST: human sodium ion channel 1.7 (hNav1.7) (Homo sapiens, UniProt Q15858)
# TEST METHOD NOTES: Blocking effect against sodium ion channel Nav1.7, IonFlux16 auto patch clamp in hNav1.7 HEK293 cells
# Format: cell-based
# APPLIED CONDITIONS: hNav1.7 HEK293 cells; inhibition of peak current after 50 seconds treatment; eight concentrations; read-out: IC50
This section presents compounds with their documented pIC50 values.
Lab note: report pIC50 as minus log10 of the concentration in molar units, number only.

Sample records with pIC50:
INSERT INTO results (compound, reported_property, reported_value) VALUES
  ('CS(=O)(=O)NC(=O)c1cc(Cl)c(-n2nc(Cl)c3cc(Nc4ccccc4)ccc32)cc1F [Example 27]', 'pIC50', 5.11),
  ('CS(=O)(=O)NC(=O)c1cc(Cl)c(-n2nc(Cl)c3cc(C(F)(F)F)ccc32)cc1F [Example 18]', 'pIC50', 6.23);

Next compound, please.
For COc1ccc(-c2nn(-c3cc(F)c(C(=O)NS(C)(=O)=O)cc3Cl)c3ccc(F)cc23)cc1 [Example 155] , what is its reported pIC50? 6.96

---

# SYSTEM UNDER TEST: human sodium ion channel 1.7 (hNav1.7) (Homo sapiens, UniProt Q15858)
# TEST METHOD NOTES: Blocking effect against sodium ion channel Nav1.7, IonFlux16 auto patch clamp in hNav1.7 HEK293 cells
# Assay type: cell-based
# APPLIED CONDITIONS: hNav1.7 HEK293 cells; inhibition of peak current after 50 seconds treatment; eight concentrations; read-out: IC50
REPORTED PROPERTY: pIC50
In textbook form, pIC50 equals minus log to base ten of the concentration in mol/L.

The cases that follow already have their pIC50 on record.
INSERT INTO assay_data (smiles_data, system_under_test, reported_property, reported_value) VALUES
  ('CS(=O)(=O)NC(=O)c1cc(Cl)c(-n2nc(-c3ccccc3Cl)c3cc(Cl)ccc32)cc1F', 'human sodium ion channel 1.7 (hNav1.7) (Homo sapiens, UniProt Q15858)', 'pIC50', 7.32),
  ('CS(=O)(=O)NC(=O)c1cc(Cl)c(-n2nc(Cl)c3cc(-c4ccccc4Cl)ccc32)cc1F', 'human sodium ion channel 1.7 (hNav1.7) (Homo sapiens, UniProt Q15858)', 'pIC50', 6.62),
  ('CS(=O)(=O)NC(=O)c1ccc(-n2nc(-c3cccc(C(F)(F)F)c3)c3cc(Cl)ccc32)c(F)c1', 'human sodium ion channel 1.7 (hNav1.7) (Homo sapiens, UniProt Q15858)', 'pIC50', 5.96),
  ('CS(=O)(=O)NC(=O)c1ccc(-n2nc(-c3cccc(C(F)(F)F)c3)c3cc(Cl)ccc32)c(C#N)c1', 'human sodium ion channel 1.7 (hNav1.7) (Homo sapiens, UniProt Q15858)', 'pIC50', 6.05),
  ('CS(=O)(=O)NC(=O)c1cc(Cl)c(-n2cc(-c3cc(Cl)ccc3F)c3cccnc32)cc1F', 'human sodium ion channel 1.7 (hNav1.7) (Homo sapiens, UniProt Q15858)', 'pIC50', 6.52),
  ('CS(=O)(=O)NC(=O)c1cc(Cl)c(-n2nc(-c3cncc(Cl)c3)c3cc(Cl)ccc32)cc1F', 'human sodium ion channel 1.7 (hNav1.7) (Homo sapiens, UniProt Q15858)', 'pIC50', 6.73);

// switching to the query compound
Give the reported pIC50 for `CS(=O)(=O)NC(=O)c1cc(Cl)c(-n2ncc3c(Cl)c(OCc4ccccc4)ccc32)cc1F` (system: human sodium ion channel 1.7 (hNav1.7) (Homo sapiens, UniProt Q15858)). 6.10

Recorded values, source patent US10590078B2.
